# pIC50 per entry
# Test system: human recombinant ALK1 (GST fused to ALK1 intracellular domain [His142-Gln503]) (Homo sapiens, UniProt P37023)
# Construct: GST fused to ALK1 intracellular domain [His142-Gln503]
# Sequence (P37023 142-503): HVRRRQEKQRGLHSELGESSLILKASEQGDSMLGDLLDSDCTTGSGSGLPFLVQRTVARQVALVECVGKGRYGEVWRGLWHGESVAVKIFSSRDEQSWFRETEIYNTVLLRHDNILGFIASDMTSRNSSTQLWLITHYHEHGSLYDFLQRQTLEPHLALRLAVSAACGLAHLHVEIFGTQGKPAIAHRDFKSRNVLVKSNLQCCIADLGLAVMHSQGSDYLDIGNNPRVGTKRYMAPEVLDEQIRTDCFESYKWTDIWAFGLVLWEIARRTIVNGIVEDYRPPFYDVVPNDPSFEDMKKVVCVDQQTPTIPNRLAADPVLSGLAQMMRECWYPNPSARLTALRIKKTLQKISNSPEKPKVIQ
# Assay method text: ALK1-Kinase Flashplate-Assay
# Conditions used: 0.5 μM ATP, biotinylated α-casein substrate; read-out: Assay 1 (ALK1-Kinase Flashplate-Assay IC50 class)
pIC50: −log10 of the molar value.

# Compound, pIC50
rows = [
    ("Oc1ccc(Nc2ccn3ncc(-c4ccc5c(c4)OCO5)c3n2)cc1 [Example 45]", "5.00 to 6.00"),
    ("COc1cc(-c2cnn3ccc(Nc4ccc(C)c(NS(C)(=O)=O)c4)nc23)cc(OC)c1OC [Example 105]", "> 6.00"),
    ("Cn1cc(-c2cnn3ccc(NCc4cccnc4)nc23)cn1 [Example 230]", "5.00 to 6.00"),
]

Enquiry: Which pIC50 value belongs to COc1cc(Nc2ccn3ncc(-c4ccc(O)cc4)c3n2)cc(OC)c1OC [Example 463] ?
Return: 5.00 to 6.00

Enquiry: Now the same for CC(=O)Nc1ccc(Nc2ccn3ncc(-c4cccc(N(C)C)c4)c3n2)cc1 [Example 331]
Return: 5.00 to 6.00

Enquiry: Now the same for CN(C)CCNC(=O)c1cccc(-c2cnn3ccc(Nc4ccc(Oc5ccccc5)cc4)nc23)c1 [Example 329]
Return: 5.00 to 6.00

Enquiry: Now the same for COc1cc(-c2cnn3ccc(Nc4ccc(Oc5ccccc5)cc4)nc23)cc(OC)c1OC [Example 254]
Return: 5.00 to 6.00

Enquiry: Now the same for FC(F)(F)Oc1cccc(-c2cnn3ccc(NCc4ccncc4)nc23)c1 [Example 113]
Return: > 6.00

Enquiry: Now the same for FC(F)(F)c1cccc(-c2cnn3ccc(NCc4ccncc4)nc23)c1 [Example 397]
Return: 5.00 to 6.00

---

# Test system: human recombinant ALK1 (GST fused to ALK1 intracellular domain [His142-Gln503]) (Homo sapiens, UniProt P37023)
# Construct: GST fused to ALK1 intracellular domain [His142-Gln503]
# Assay method text: ALK1-Kinase Flashplate-Assay
# Conditions used: 0.5 μM ATP, biotinylated α-casein substrate; read-out: Assay 1 (ALK1-Kinase Flashplate-Assay IC50 class)
# IC50 per entry

Below: 5 molecules and their reported IC50.
# Molecule, IC50
data = [
    ("c1cc(CNc2ccn3ncc(-c4ccsc4)c3n2)ccn1 [Example 63]", "< 1 µM"),
    ("c1cncc(CNc2ccn3ncc(-c4cccc5ccccc45)c3n2)c1 [Example 377]", "< 1 µM"),
    ("COc1cc(Nc2ccn3ncc(-c4cnn(C)c4)c3n2)cc(OC)c1OC [Example 182]", "1 to 10 µM"),
    ("c1ccc2sc(-c3cnn4ccc(NCc5ccncc5)nc34)cc2c1 [Example 64]", "< 1 µM"),
    ("CC(=O)Nc1cccc(-c2cnn3ccc(Nc4ccc5[nH]ccc5c4)nc23)c1 [Example 19]", "< 1 µM"),
]

Enquiry: Which IC50 value belongs to COc1ccc(-c2cnn3ccc(Nc4ccc(O)cc4)nc23)cn1 [Example 147] ?
Return: < 1 µM

Enquiry: Now the same for Nc1ccc(C(=O)Nc2ccc(Nc3ccn4ncc(-c5cnn(Cc6ccccc6)c5)c4n3)cc2)cc1 [Example 204]
Return: 1 to 10 µM

Enquiry: Now the same for CN(C)CCNc1ccn2ncc(-c3ccc(C(=O)O)cc3)c2n1 [Example 136]
Return: 1 to 10 µM

Enquiry: Now the same for COc1ccc(-c2cnn3ccc(Nc4ccc(C(C)C)cc4)nc23)cc1OC [Example 37]
Return: 1 to 10 µM

Enquiry: Now the same for COc1cncc(-c2cnn3ccc(Nc4ccccc4)nc23)c1 [Example 251]
Return: 1 to 10 µM

Enquiry: Now the same for COc1ccc(Nc2ccn3ncc(-c4ccc(O)cc4)c3n2)cn1 [Example 13]
Return: 1 to 10 µM

---

# Test system: human recombinant ALK1 (GST fused to ALK1 intracellular domain [His142-Gln503]) (Homo sapiens, UniProt P37023)
# Construct: GST fused to ALK1 intracellular domain [His142-Gln503]
# Sequence (P37023 142-503): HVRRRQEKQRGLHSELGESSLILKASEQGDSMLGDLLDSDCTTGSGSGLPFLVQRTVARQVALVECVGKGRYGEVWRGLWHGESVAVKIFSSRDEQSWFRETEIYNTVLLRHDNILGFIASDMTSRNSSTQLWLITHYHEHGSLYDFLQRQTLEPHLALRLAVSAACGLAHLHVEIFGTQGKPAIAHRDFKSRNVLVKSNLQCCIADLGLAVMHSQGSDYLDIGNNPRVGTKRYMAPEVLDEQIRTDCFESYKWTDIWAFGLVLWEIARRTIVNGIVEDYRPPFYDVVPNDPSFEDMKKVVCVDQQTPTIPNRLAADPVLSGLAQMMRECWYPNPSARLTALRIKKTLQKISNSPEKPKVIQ
# Assay method text: ALK1-Kinase Flashplate-Assay
# Conditions used: 0.5 μM ATP, biotinylated α-casein substrate; read-out: Assay 1 (ALK1-Kinase Flashplate-Assay IC50 class)
pIC50: −log10 of the molar value.
# pIC50 per entry

Below: 5 molecules and their reported pIC50.
# Molecule, pIC50
records = [
    ("Cc1ccc(Nc2ccn3ncc(-c4cnn(C)c4)c3n2)cc1NS(C)(=O)=O [Example 210]", "> 6.00"),
    ("COc1ccc(Nc2ccn3ncc(-c4cnn(C)c4)c3n2)cn1 [Example 198]", "> 6.00"),
    ("Oc1cccc(-c2cnn3ccc(NCc4cccnc4)nc23)c1 [Example 168]", "> 6.00"),
    ("COc1cc(OC)cc(-c2cnn3ccc(Nc4ccc(N5CCOCC5)nc4)nc23)c1 [Example 30]", "> 6.00"),
    ("Oc1ccc(-c2cnn3ccc(Nc4ccc5[nH]ccc5c4)nc23)cc1 [Example 18]", "5.00 to 6.00"),
]

For the next question, use this molecule.
Enquiry: Which pIC50 value belongs to COc1ccc(-c2cnn3ccc(NCc4cccnc4)nc23)cc1OC [Example 292] ?
Return: 5.00 to 6.00

---

# Test system: human recombinant ALK1 (GST fused to ALK1 intracellular domain [His142-Gln503]) (Homo sapiens, UniProt P37023)
# Construct: GST fused to ALK1 intracellular domain [His142-Gln503]
# Sequence (P37023 142-503): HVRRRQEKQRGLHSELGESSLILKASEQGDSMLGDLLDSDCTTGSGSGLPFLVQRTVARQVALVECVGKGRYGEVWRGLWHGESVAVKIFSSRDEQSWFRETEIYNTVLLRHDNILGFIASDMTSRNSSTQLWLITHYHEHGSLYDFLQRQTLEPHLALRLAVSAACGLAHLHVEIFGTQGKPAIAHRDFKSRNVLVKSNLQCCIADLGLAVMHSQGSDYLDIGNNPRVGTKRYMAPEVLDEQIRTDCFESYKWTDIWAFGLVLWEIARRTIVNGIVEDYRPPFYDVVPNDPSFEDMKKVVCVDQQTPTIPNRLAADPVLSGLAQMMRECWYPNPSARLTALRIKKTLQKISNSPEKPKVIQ
# Assay method text: ALK1-Kinase Flashplate-Assay
# Conditions used: 0.5 μM ATP, biotinylated α-casein substrate; read-out: Assay 1 (ALK1-Kinase Flashplate-Assay IC50 class)
# IC50 per entry

# Molecule, IC50
records = [
    ("Cc1csc(-c2cnn3ccc(NCc4cccnc4)nc23)c1 [Example 172]", "1000 to 10000 nM"),
]

Enquiry: Which IC50 value belongs to CC(=O)Nc1cccc(-c2cnn3ccc(Nc4cccc(Cl)c4)nc23)c1 [Example 453] ?
Return: 1000 to 10000 nM

Enquiry: Now the same for COc1ccc(-c2cnn3ccc(NCc4cccnc4)nc23)cn1 [Example 171]
Return: 1000 to 10000 nM

Enquiry: Now the same for COc1cc(Nc2ccn3ncc(-c4ccncc4)c3n2)cc(OC)c1OC [Example 4]
Return: 1000 to 10000 nM

Enquiry: Now the same for COc1cc(Nc2ccn3ncc(-c4cc(OC)c(OC)c(OC)c4)c3n2)cc(OC)c1OC [Example 77]
Return: < 1000 nM
